Cited source: ChEMBL document CHEMBL3351652

target: UniProt P31648; experiment: Inhibition of mouse GAT1 stably expressed in HEK293 assessed as inhibition of [3H]GABA uptake treated with compound irradiated at 375 nm for 30 mins measured after 25 mins by liquid scintillation counting; format: cell-based
pIC50: −log10 of the molar value.
pIC50 by entry:
quantity: pIC50

>>> readout_number("O=C(O)[C@@H]1CCCN(CCOCCc2ccc(/N=N/c3cccc4ccccc34)cc2)C1")
6.10
>>> readout_number("O=C(O)[C@@H]1CCCN(CCOCCc2ccc(/N=N\\c3cccc4ccccc34)cc2)C1")
6.10
>>> readout_number("O=C(O)[C@@H]1CCCN(CCOCCc2cccc(/N=N\\c3cccc4ccccc34)c2)C1")
5.78
>>> readout_number("O=C(O)[C@@H]1CCCN(CCOCCc2cccc(/N=N/c3cccc4ccccc34)c2)C1")
5.78
